Test system: Oocyte
Experiment: Activity at Wistar rat cortex AMPA receptor expressed in Xenopus laevis oocytes assessed as 2-fold increase of (S)-AMPA-induced current
Type: cell-based
readout name: Activity (µM)

(A) CN1CN(C)S(=O)(=O)c2cc(Cl)ccc21
(B) CCN1CNS(=O)(=O)c2cc([N+](=O)[O-])ccc21
(C) CC1Nc2ccc(Cl)cc2S(=O)(=O)N1 (stereo not given)
(D) CN1CNS(=O)(=O)c2cc([N+](=O)[O-])ccc21
Arrange the 4 compounds by rising Activity, starting with the smallest. # format: label list in the order the request specifies
A, D, B, C
(A: 7 µM, D: 11 µM, B: 16 µM, C: 134 µM)

(I) CCN1CNS(=O)(=O)c2ccccc21
(II) CCN1CN(C)S(=O)(=O)c2cc(Cl)ccc21
For the pair I and II , which entry has the numerically smaller recorded Activity? Mark your answer with the label of the selected entry.
I
(I: 14 µM, II: 21 µM)

(I) CCN1CNS(=O)(=O)c2cc(C)ccc21
(II) CCN1CNS(=O)(=O)c2cc(I)ccc21
So which one has the bigger Activity here, I or II ? Mark your answer with the label of the selected entry.
II

(a) CN1CN(C)S(=O)(=O)c2ccccc21
(b) CCN1C=NS(=O)(=O)c2cc(Cl)ccc21
(c) CCN1CNS(=O)(=O)c2cc(OC)ccc21
Order the items by recorded Activity; the first position goes to the largest value. # format: label list in the order the request specifies
b, c, a
(b: 400 µM, c: 68 µM, a: 37 µM)

----------
Tested on: Oocyte
Assay: Activity at Wistar rat cortex AMPA receptor expressed in Xenopus laevis oocytes assessed as 2-fold increase of (S)-AMPA-induced current
Format: cell-based
readout name: Activity (µM)

Here's what some known entries look like.
{"columns": ["molecule", "Activity / µM"],
 "data": [
  ["CN1C=NS(=O)(=O)c2ccccc21", 450],
  ["CCN1CNS(=O)(=O)c2cc(Br)ccc21", 29],
  ["CN1CNS(=O)(=O)c2ccccc21", 22]
]}

(a) Cc1ccc2c(c1)S(=O)(=O)N=CN2C
(b) CN1CNS(=O)(=O)c2cc(Cl)ccc21
(c) NS(=O)(=O)c1cc2c(cc1Cl)NC(C1CC3C=CC1C3)NS2(=O)=O (stereo not drawn) [CYCLOTHIAZIDE]
(d) Cc1ccc2c(c1)S(=O)(=O)NCN2C
(e) CCN1CNS(=O)(=O)c2cc(C(=O)Oc3ccccc3)ccc21
Give the ascending ranking of the items by reported Activity. # format: label list in the order the request specifies
c, b, d, e, a
(c: 1.6 µM, b: 6 µM, d: 21 µM, e: 32 µM, a: 320 µM)

----------
Tested on: Oocyte
Assay: Activity at Wistar rat cortex AMPA receptor expressed in Xenopus laevis oocytes assessed as maximum increase of (S)-AMPA-induced current
Assay type: cell-based
Listed here: items and their measured Activity.

Here's what some known entries look like.
{"columns": ["record smiles", "value reported"],
 "data": [
  ["CN1CNS(=O)(=O)c2ccccc21", "> 1900%"],
  ["Cc1ccc2c(c1)S(=O)(=O)NCN2C", "> 3000%"],
  ["CCN1C=NS(=O)(=O)c2cc(C)ccc21", "> 300%"]
]}

Read the next record carefully.
Consider the compound CN1CNS(=O)(=O)c2cc([N+](=O)[O-])ccc21 and give its recorded Activity.
> 1400%
